- SYSTEM_TESTED: human Dopamine D2L receptor (Homo sapiens)
- Construct: expressed in transfected cells; host or cells: CHO cells
- METHOD_DESCRIPTION: In vitro binding affinity for human D2L receptor ([3H]Spiperone)
- EXPERIMENTAL_CONTEXT: human D2L receptor-transfected CHO cell membranes, [3H]Spiperone; read-out: h-D2L (converted)

MOLECULE	IC50 / nM
COC(=O)CC(=O)N1CCN(CC2CC3=C(O2)c2cc(F)ccc2Oc2ccccc23)CC1 (centres unmarked)	2000
CN(CC(=O)N(C)C)C[C@H]1CC2=C(O1)c1cc(F)ccc1Cc1ccccc12	2510
CNCC1CC2=C(O1)c1ccc(F)cc1Cc1ccccc12 (centres unmarked)	3160
CCNCC1CC2=C(O1)c1cc(F)ccc1Cc1ccccc12 (single isomer, unassigned) [Compound 16]	316
CCCCc1ccc2c(c1)C1=C(CC(CNC)O1)c1ccccc1C2 (centres unmarked)	251
O=C(OCc1ccccc1)N1CCN(CC2CC3=C(O2)c2cc(F)ccc2Cc2ccccc23)CC1 (centres unmarked)	1260
CNCC1CC2=C(O1)c1cc(F)ccc1C(C)c1ccccc12 (centres unmarked)	2000
O=C(OCc1ccccc1)N1CCN(CC2CC3=C(O2)c2cc(F)ccc2Oc2ccccc23)CC1 (centres unmarked)	251

* * *

- SYSTEM_TESTED: NET (Rattus norvegicus, UniProt Q9WTR4)
- Construct: Cortex from rat brain was collected and homogenised; from tissue; host or cells: rat brain cortex
- Sequence (Q9WTR4 1-597): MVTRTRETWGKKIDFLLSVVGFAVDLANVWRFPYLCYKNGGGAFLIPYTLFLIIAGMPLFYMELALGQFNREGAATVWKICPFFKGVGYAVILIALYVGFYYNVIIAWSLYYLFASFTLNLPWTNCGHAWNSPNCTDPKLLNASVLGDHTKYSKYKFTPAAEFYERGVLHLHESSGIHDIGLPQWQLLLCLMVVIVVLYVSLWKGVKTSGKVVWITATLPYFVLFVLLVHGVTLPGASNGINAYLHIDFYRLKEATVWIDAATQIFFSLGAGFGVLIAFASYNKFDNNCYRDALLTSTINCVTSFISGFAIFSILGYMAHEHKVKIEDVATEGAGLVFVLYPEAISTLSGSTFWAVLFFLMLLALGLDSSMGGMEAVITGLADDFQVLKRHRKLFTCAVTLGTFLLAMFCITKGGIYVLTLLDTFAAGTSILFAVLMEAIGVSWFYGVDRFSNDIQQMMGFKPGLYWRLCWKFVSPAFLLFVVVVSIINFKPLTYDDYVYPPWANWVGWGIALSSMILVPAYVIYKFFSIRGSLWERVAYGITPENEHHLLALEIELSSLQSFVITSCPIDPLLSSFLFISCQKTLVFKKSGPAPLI
- METHOD_DESCRIPTION: In vitro determination of NET reuptake inhibition ([3H]Nixosetine binding, rat brain cortex)
- EXPERIMENTAL_CONTEXT: rat brain cortex, [3H]Nixosetine; read-out: NET Reuptake Inhibition (converted)

COMPOUND	SCALE_UNIT	IC50
CNCC1CC2=C(O1)c1cc(F)ccc1Oc1ccccc12 (centres unmarked) [Compound 12]	µM	0.0398
CN(C)CCC1CC2=C(O1)c1cc(F)ccc1Cc1ccccc12 (centres unmarked) [Compound 137]	µM	0.158
CCCn1c2c(c3ccccc31)C1=C(CC(CNC)O1)c1ccccc1S2 (centres unmarked) [Compound 93]	µM	0.1
CNC(=O)CN(C)C[C@H]1CC2=C(O1)c1cc(F)ccc1Cc1ccccc12 [Compound 116]	µM	2.51
O=C(c1ccccc1)N1CCN(CC2CC3=C(O2)c2cc(F)ccc2Cc2ccccc23)CC1 (centres unmarked) [Compound 71]	µM	5.01

* * *

- SYSTEM_TESTED: NET (Rattus norvegicus)
- Construct: Cortex from rat brain was collected and homogenised; from tissue; host or cells: rat brain cortex
- METHOD_DESCRIPTION: In vitro determination of NET reuptake inhibition ([3H]Nixosetine binding, rat brain cortex)
- EXPERIMENTAL_CONTEXT: NET Reuptake Inhibition
pIC50: −log10 of the molar value.
ATTRIBUTE_MEASURED: pIC50

STRUCTURE_STRING	ATTRIBUTE_MEASURED	RECORDED_NUMBER
CN(C/C=C/c1ccccc1)C[C@H]1CC2=C(O1)c1cc(F)ccc1Cc1ccccc12	pIC50	6.00

* * *

log10 IC50 values, listed per item
- SYSTEM_TESTED: NET (Rattus norvegicus, UniProt Q9WTR4)
- Construct: Cortex from rat brain was collected and homogenised; from tissue; host or cells: rat brain cortex
- METHOD_DESCRIPTION: In vitro determination of NET reuptake inhibition ([3H]Nixosetine binding, rat brain cortex)
- EXPERIMENTAL_CONTEXT: rat brain cortex, [3H]Nixosetine; read-out: NET Reuptake Inhibition (converted)
ATTRIBUTE_MEASURED: log10 IC50 (log10 of the value in nM)

MOLECULE	log10 IC50
CCNCC1CC2=C(O1)c1cc(F)ccc1Cc1ccccc12 (single isomer, unassigned) [Compound 15]	0.50
CCNCC1CC2=C(O1)c1cc(Br)ccc1Cc1ccccc12 (centres unmarked) [Compound 17]	2.00
CNCC1CC2=C(O1)c1ccccc1Cc1ccc(C#N)cc12 (centres unmarked) [Compound 133]	2.50
O=C(NCc1ccccc1)N1CCN(CC2CC3=C(O2)c2cc(F)ccc2Oc2ccccc23)CC1 (centres unmarked) [Compound 88]	3.20
CCNCC1CC2=C(O1)c1cc(F)ccc1Cc1ccccc12 (single isomer, unassigned) [Compound 16]	2.20
O=C(C1CC1)N1CCN(CC2CC3=C(O2)c2cc(F)ccc2Oc2ccccc23)CC1 (centres unmarked) [Compound 58]	3.20
CNCC1CC2=C(O1)c1ccccc1C(C)c1ccccc12 (centres unmarked) [Compound 7]	1.80
O=C(NCc1ccccc1)N1CCN(CC2CC3=C(O2)c2cc(F)ccc2Cc2ccccc23)CC1 (centres unmarked) [Compound 87]	3.90
OCCNCC1CC2=C(O1)c1cc(Br)ccc1Cc1ccccc12 (centres unmarked) [Compound 20]	2.70
CN(C)CC1CC2=C(O1)c1ccsc1Cc1ccccc12 (centres unmarked) [Compound 131]	2.90
O=C(OCc1ccccc1)N1CCN(CC2CC3=C(O2)c2cc(F)ccc2Cc2ccccc23)CC1 (centres unmarked) [Compound 69]	3.90
CNC[C@@H]1CC2=C(O1)c1ccccc1[C@@H](C)c1ccccc12 (racemic) [Compound 9]	1.90
C=CCn1c2c(c3ccccc31)C1=C(CC(CNC)O1)c1ccccc1S2 (centres unmarked) [Compound 95]	2.20

* * *

- SYSTEM_TESTED: human cloned 5-HT2C receptor (Homo sapiens, UniProt P28335)
- Construct: expressed in transfected cells; host or cells: CHO cells
- Sequence (P28335 33-458): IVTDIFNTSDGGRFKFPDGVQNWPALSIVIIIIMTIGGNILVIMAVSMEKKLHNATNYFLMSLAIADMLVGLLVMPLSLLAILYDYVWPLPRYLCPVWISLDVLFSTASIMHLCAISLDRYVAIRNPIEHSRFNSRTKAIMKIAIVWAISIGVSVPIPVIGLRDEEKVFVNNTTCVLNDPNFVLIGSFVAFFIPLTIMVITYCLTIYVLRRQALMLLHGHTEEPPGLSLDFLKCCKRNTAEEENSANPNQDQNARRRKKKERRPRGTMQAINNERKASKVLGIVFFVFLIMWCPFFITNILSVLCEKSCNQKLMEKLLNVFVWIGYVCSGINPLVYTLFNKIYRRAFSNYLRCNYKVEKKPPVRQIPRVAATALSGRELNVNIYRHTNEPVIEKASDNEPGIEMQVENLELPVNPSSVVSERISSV
- METHOD_DESCRIPTION: In vitro binding affinity for 5-HT2C receptor (radioligand binding)
- EXPERIMENTAL_CONTEXT: human cloned 5-HT2C receptor, radioligand binding; read-out: h-5HT2C (converted)
IC50 values, listed per item

COMPOUND	SCALE_UNIT	IC50
CCOC(=O)CN(C)C[C@H]1CC2=C(O1)c1cc(F)ccc1Cc1ccccc12 [Compound 113]	nM	10
CN(C)CC1CC2=C(O1)c1cc(F)ccc1Oc1ccccc12 (stereo not drawn) [Compound 26]	nM	7.94
CN(C)CC1CC2=C(O1)c1ccccc1Cc1ccccc12 (stereo not drawn) [Compound 22]	nM	3.98
CNCC1CC2=C(O1)c1cc(F)ccc1C(C)c1ccccc12 (stereo not drawn) [Compound 8]	nM	10
CCOC(=O)N1CCN(CC2CC3=C(O2)c2cc(F)ccc2Oc2ccccc23)CC1 (stereo not drawn) [Compound 62]	nM	200
COc1ccc(NC(=O)N2CCN(CC3CC4=C(O3)c3cc(F)ccc3Cc3ccccc34)CC2)cc1 (stereo not drawn) [Compound 89]	nM	3.16
O=S(=O)(Cc1ccccc1)N1CCN(CC2CC3=C(O2)c2cc(F)ccc2Oc2ccccc23)CC1 (stereo not drawn) [Compound 52]	nM	200
CN(C)C1CCN(CC2CC3=C(O2)c2cc(F)ccc2Cc2ccccc23)C1 (stereo not drawn) [Compound 35]	nM	15.8
O=C(Nc1ccccc1)N1CCN(CC2CC3=C(O2)c2cc(F)ccc2Cc2ccccc23)CC1 (stereo not drawn) [Compound 83]	nM	10

* * *

- SYSTEM_TESTED: human Dopamine D2L receptor (Homo sapiens, UniProt P14416)
- Construct: expressed in transfected cells; host or cells: CHO cells
- Sequence (P14416 whole entry): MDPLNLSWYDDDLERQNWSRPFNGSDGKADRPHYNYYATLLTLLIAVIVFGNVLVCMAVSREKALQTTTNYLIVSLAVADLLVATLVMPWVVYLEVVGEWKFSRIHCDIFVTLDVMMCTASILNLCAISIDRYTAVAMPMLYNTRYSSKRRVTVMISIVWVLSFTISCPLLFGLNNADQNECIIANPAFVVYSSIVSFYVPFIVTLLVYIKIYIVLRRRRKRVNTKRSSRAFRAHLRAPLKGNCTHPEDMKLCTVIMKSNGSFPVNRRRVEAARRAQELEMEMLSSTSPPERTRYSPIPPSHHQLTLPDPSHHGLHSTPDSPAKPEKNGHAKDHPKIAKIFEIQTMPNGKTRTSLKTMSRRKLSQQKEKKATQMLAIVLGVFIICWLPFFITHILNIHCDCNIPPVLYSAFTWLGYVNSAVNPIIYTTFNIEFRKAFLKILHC
- METHOD_DESCRIPTION: In vitro binding affinity for human D2L receptor ([3H]Spiperone)
- EXPERIMENTAL_CONTEXT: human D2L receptor-transfected CHO cell membranes, [3H]Spiperone; read-out: h-D2L (converted)
IC50 values, listed per item

MOLECULE	SYSTEM_TESTED	SCALE_UNIT	IC50
CCOC(=O)CNC(=O)N1CCN(CC2CC3=C(O2)c2cc(F)ccc2Oc2ccccc23)CC1 (stereo not shown) [Compound 82]	human Dopamine D2L receptor (Homo sapiens, UniProt P14416)	nM	1580
O=C(Nc1ccc(F)cc1)N1CCN(CC2CC3=C(O2)c2cc(F)ccc2Cc2ccccc23)CC1 (stereo not shown) [Compound 85]	human Dopamine D2L receptor (Homo sapiens, UniProt P14416)	nM	100
CN(C/C=C/C(=O)O)C[C@H]1CC2=C(O1)c1cc(F)ccc1Cc1ccccc12 [Compound 109]	human Dopamine D2L receptor (Homo sapiens, UniProt P14416)	nM	3160
CCNCC1CC2=C(O1)c1cc(Br)ccc1Cc1ccccc12 (stereo not shown) [Compound 17]	human Dopamine D2L receptor (Homo sapiens, UniProt P14416)	nM	25.1
CN(CCC(=O)O)C[C@H]1CC2=C(O1)c1cc(F)ccc1Cc1ccccc12 [Compound 108]	human Dopamine D2L receptor (Homo sapiens, UniProt P14416)	nM	3980
CNCC1CC2=C(O1)c1ccccc1Cc1ccc(C#N)cc12 (stereo not shown) [Compound 133]	human Dopamine D2L receptor (Homo sapiens, UniProt P14416)	nM	2040
OCCN1CCN(CC2CC3=C(O2)c2cc(F)ccc2Cc2ccccc23)CC1 (stereo not shown) [Compound 41]	human Dopamine D2L receptor (Homo sapiens, UniProt P14416)	nM	10
OCCNCC1CC2=C(O1)c1cc(Br)ccc1Cc1ccccc12 (stereo not shown) [Compound 20]	human Dopamine D2L receptor (Homo sapiens, UniProt P14416)	nM	31.6
CNCC1CC2=C(O1)c1c(F)cccc1Cc1ccccc12 (stereo not shown) [Compound 136]	human Dopamine D2L receptor (Homo sapiens, UniProt P14416)	nM	1580
CNC(=O)/C=C/CN(C)C[C@H]1CC2=C(O1)c1cc(F)ccc1Cc1ccccc12 [Compound 123]	human Dopamine D2L receptor (Homo sapiens, UniProt P14416)	nM	50.1
